Cited source: ChEMBL document CHEMBL5058577

Population Mitochondria Different-Phenotype (%) listing for selected compounds.
System: HEK-293T
test.protocol: Multiplex assay against HEK293T
Format: toxicity, cell-based
experimental.context: human, 24 h, 10 µM, compound concentration 10 uM, replicate 2
measurement.name: Population Mitochondria Different-Phenotype (%)

[
  {
    "compound": "CN(C)C(=O)Cn1cc(-c2ccc(-c3cncc4ccccc34)cc2)cn1",
    "unit.descriptor": "%",
    "value.reported": 53
  },
  {
    "compound": "O=C1[C@H](Cc2ccc(O)cc2)N2C(=O)CCN(C(=O)NCc3ccccc3)[C@H]2CN1Cc1cccc2ccccc12",
    "unit.descriptor": "%",
    "value.reported": 95
  },
  {
    "compound": "Br.CS(=O)(=O)Nc1c(O)ccc2c1CCCC2C1=NCCN1 (stereo not given)",
    "unit.descriptor": "%",
    "value.reported": 46
  },
  {
    "compound": "O=C(NCCN1CCC(n2c(=O)[nH]c3cc(Cl)ccc32)CC1)c1ccc(F)cc1 [HALOPEMIDE]",
    "unit.descriptor": "%",
    "value.reported": 78
  },
  {
    "compound": "O=C(CCCc1ccccc1)Nc1nc2ccccc2c(=O)s1",
    "unit.descriptor": "%",
    "value.reported": 47
  }
]

====

System: U2OS
test.protocol: Multiplex assay against U2OS
Format: toxicity, cell-based
experimental.context: human, 48 h, 10 µM, compound concentration 10 uM, replicate 2
Please assign N whenever Population Hoechst High Intensity Objects (%) is at or above 3%, and Y whenever it is below.

[
  {
    "molecule": "Br.CS(=O)(=O)Nc1c(O)ccc2c1CCCC2C1=NCCN1 (centres undefined)",
    "cat": "Y"
  },
  {
    "molecule": "CCCCC1=NC2(CCCC2)C(=O)N1Cc1ccc(-c2ccccc2-c2nnn[nH]2)cc1 [IRBESARTAN]",
    "cat": "N"
  },
  {
    "molecule": "O=C1[C@H](Cc2ccc(O)cc2)N2C(=O)CCN(C(=O)NCc3ccccc3)[C@H]2CN1Cc1cccc2ccccc12",
    "cat": "N"
  },
  {
    "molecule": "CCCCC(=O)N(Cc1ccc(-c2ccccc2-c2nnn[nH]2)cc1)[C@H](C(=O)O)C(C)C",
    "cat": "N"
  },
  {
    "molecule": "Cc1noc(-c2ccc(-c3ccc(CC(=O)O)cc3)cc2)c1NC(=O)O[C@H](C)c1ccccc1Cl",
    "cat": "N"
  },
  {
    "molecule": "CC(/C=C1\\SC(=S)N(CCCC(=O)Nc2ccc(C(=O)O)c(O)c2)C1=O)=C\\c1ccccc1",
    "cat": "Y"
  },
  {
    "molecule": "CCc1cc2cc(NS(=O)(=O)c3ccc(C#N)cc3)ccc2n(CC)c1=O",
    "cat": "Y"
  }
]

====

Test system: U2OS
test.protocol: Multiplex assay against U2OS
Assay type: toxicity, cell-based
experimental.context: human, 48 h, 1 µM, compound concentration 1 uM, replicate 2
measurement.name: Total Cell Count

[
  {
    "molecule": "CN[C@@H](C)C(=O)N[C@H](C(=O)N1CCC[C@H]1C(=O)Nc1snnc1-c1ccccc1)C1CCCCC1",
    "value.reported": 170
  },
  {
    "molecule": "Br.CS(=O)(=O)Nc1c(O)ccc2c1CCCC2C1=NCCN1 (centres undefined)",
    "value.reported": 253
  },
  {
    "molecule": "CCCOc1ccc2[nH]cc(C3=CCNCC3)c2n1.Cl",
    "value.reported": 183
  },
  {
    "molecule": "Cc1cccc(NC(=O)CN2CCC(c3ccccn3)CC2)c1.Cl.Cl",
    "value.reported": 182
  },
  {
    "molecule": "N#Cc1c(Oc2cccc(OS(=O)(=O)CCCC(F)(F)F)c2)cccc1C(F)(F)F",
    "value.reported": 195
  },
  {
    "molecule": "C[C@H](N)COC(=O)[C@@H](CCCCN)NC(=O)Cc1c(-c2ccc3ccccc3c2)[nH]c2c1ccc1ccccc12",
    "value.reported": 231
  },
  {
    "molecule": "CN(C)C(=O)Cn1cc(-c2ccc(-c3cncc4ccccc34)cc2)cn1",
    "value.reported": 163
  },
  {
    "molecule": "COC[C@@H](c1ccc(C(F)(F)F)cc1)N1CCN(C2(C)CCN(C(=O)c3c(C)ncnc3C)CC2)C[C@@H]1C.O=C(O)/C=C\\C(=O)O [VICRIVIROC MALEATE]",
    "value.reported": 142
  },
  {
    "molecule": "CCCCC(=O)N(Cc1ccc(-c2ccccc2-c2nnn[nH]2)cc1)[C@H](C(=O)O)C(C)C",
    "value.reported": 201
  }
]

====

Population Apoptotic (%) listing for selected molecules.
Test system: HEK-293T
test.protocol: Multiplex assay against HEK293T
Type: toxicity, cell-based
experimental.context: human, 48 h, 1 µM, compound concentration 1 uM, replicate 1
measurement.name: Population Apoptotic (%)

[
  {
    "molecule": "O=C(NCCN1CCC(n2c(=O)[nH]c3cc(Cl)ccc32)CC1)c1ccc(F)cc1 [HALOPEMIDE]",
    "unit.descriptor": "%",
    "value.reported": 30
  },
  {
    "molecule": "CC(/C=C1\\SC(=S)N(CCCC(=O)Nc2ccc(C(=O)O)c(O)c2)C1=O)=C\\c1ccccc1",
    "unit.descriptor": "%",
    "value.reported": 23
  },
  {
    "molecule": "COC[C@@H](c1ccc(C(F)(F)F)cc1)N1CCN(C2(C)CCN(C(=O)c3c(C)ncnc3C)CC2)C[C@@H]1C.O=C(O)/C=C\\C(=O)O [VICRIVIROC MALEATE]",
    "unit.descriptor": "%",
    "value.reported": 21
  },
  {
    "molecule": "C[C@H](N)COC(=O)[C@@H](CCCCN)NC(=O)Cc1c(-c2ccc3ccccc3c2)[nH]c2c1ccc1ccccc12",
    "unit.descriptor": "%",
    "value.reported": 15
  }
]

====

Population Normal (%) listing for selected compounds.
Test system: HEK-293T
test.protocol: Multiplex assay against HEK293T
Assay type: toxicity, cell-based
experimental.context: human, 24 h, 10 µM, compound concentration 10 uM, replicate 1
measurement.name: Population Normal (%)

[
  {
    "compound": "CC(C)c1noc(N2CCC(COc3ccc(-c4ccc(S(C)(=O)=O)cc4)nc3)CC2)n1",
    "target.under.test": "HEK-293T",
    "value.reported": "91%"
  },
  {
    "compound": "CCc1cc2cc(NS(=O)(=O)c3ccc(C#N)cc3)ccc2n(CC)c1=O",
    "target.under.test": "HEK-293T",
    "value.reported": "93%"
  },
  {
    "compound": "CCCCC1=NC2(CCCC2)C(=O)N1Cc1ccc(-c2ccccc2-c2nnn[nH]2)cc1",
    "target.under.test": "HEK-293T",
    "value.reported": "96%"
  },
  {
    "compound": "COc1cccc2c1c(NS(=O)(=O)c1ccc(Cl)s1)nn2Cc1cccc(CNC(=O)C(C)(C)O)c1",
    "target.under.test": "HEK-293T",
    "value.reported": "94%"
  },
  {
    "compound": "N#Cc1c(Oc2cccc(OS(=O)(=O)CCCC(F)(F)F)c2)cccc1C(F)(F)F",
    "target.under.test": "HEK-293T",
    "value.reported": "86%"
  },
  {
    "compound": "CCCCCC(O)/C=C/[C@H]1C(=O)CC(O)C1C/C=C\\CCCC(=O)O (stereo partly drawn)",
    "target.under.test": "HEK-293T",
    "value.reported": "95%"
  },
  {
    "compound": "Cc1cccc(NC(=O)CN2CCC(c3ccccn3)CC2)c1.Cl.Cl",
    "target.under.test": "HEK-293T",
    "value.reported": "92%"
  },
  {
    "compound": "N#Cc1cc(F)cc(-c2nc(-c3ccc(F)cn3)no2)c1",
    "target.under.test": "HEK-293T",
    "value.reported": "95%"
  },
  {
    "compound": "CCCCC(=O)N(Cc1ccc(-c2ccccc2-c2nnn[nH]2)cc1)[C@H](C(=O)O)C(C)C",
    "target.under.test": "HEK-293T",
    "value.reported": "94%"
  },
  {
    "compound": "NCCc1cn(S(=O)(=O)c2c(Cl)nc3sccn23)c2ccccc12.O=C(O)C(=O)O",
    "target.under.test": "HEK-293T",
    "value.reported": "65%"
  },
  {
    "compound": "O=C1[C@H](Cc2ccc(O)cc2)N2C(=O)CCN(C(=O)NCc3ccccc3)[C@H]2CN1Cc1cccc2ccccc12",
    "target.under.test": "HEK-293T",
    "value.reported": "88%"
  },
  {
    "compound": "CC(C)COc1ccc(CNC(=O)N(Cc2ccc(F)cc2)C2CCN(C)CC2)cc1",
    "target.under.test": "HEK-293T",
    "value.reported": "72%"
  },
  {
    "compound": "CC(/C=C1\\SC(=S)N(CCCC(=O)Nc2ccc(C(=O)O)c(O)c2)C1=O)=C\\c1ccccc1",
    "target.under.test": "HEK-293T",
    "value.reported": "94%"
  },
  {
    "compound": "Cc1cnc(-c2cc(N3CCN(C(=O)CCS(C)(=O)=O)CC3)ncc2Cl)c(C)c1",
    "target.under.test": "HEK-293T",
    "value.reported": "94%"
  },
  {
    "compound": "COC[C@@H](c1ccc(C(F)(F)F)cc1)N1CCN(C2(C)CCN(C(=O)c3c(C)ncnc3C)CC2)C[C@@H]1C.O=C(O)/C=C\\C(=O)O [VICRIVIROC MALEATE]",
    "target.under.test": "HEK-293T",
    "value.reported": "93%"
  },
  {
    "compound": "CN[C@@H](C)C(=O)N[C@H](C(=O)N1CCC[C@H]1C(=O)Nc1snnc1-c1ccccc1)C1CCCCC1",
    "target.under.test": "HEK-293T",
    "value.reported": "92%"
  },
  {
    "compound": "CCCOc1ccc2[nH]cc(C3=CCNCC3)c2n1.Cl",
    "target.under.test": "HEK-293T",
    "value.reported": "92%"
  },
  {
    "compound": "C[C@H](N)COC(=O)[C@@H](CCCCN)NC(=O)Cc1c(-c2ccc3ccccc3c2)[nH]c2c1ccc1ccccc12",
    "target.under.test": "HEK-293T",
    "value.reported": "93%"
  },
  {
    "compound": "Cl.NCCc1ccc(O)c(O)c1 [DOPAMINE HYDROCHLORIDE]",
    "target.under.test": "HEK-293T",
    "value.reported": "94%"
  },
  {
    "compound": "CC(C)(C)c1cc(NC(=O)Nc2ccc(-c3cn4c(n3)sc3cc(OCCN5CCOCC5)ccc34)cc2)no1",
    "target.under.test": "HEK-293T",
    "value.reported": "83%"
  },
  {
    "compound": "Cl.N=C(N)NC(=O)Cc1c(Cl)cccc1Cl [GUANFACINE HYDROCHLORIDE]",
    "target.under.test": "HEK-293T",
    "value.reported": "92%"
  },
  {
    "compound": "CN(C)C(=O)Cn1cc(-c2ccc(-c3cncc4ccccc34)cc2)cn1",
    "target.under.test": "HEK-293T",
    "value.reported": "93%"
  },
  {
    "compound": "O=C(CCCc1ccccc1)Nc1nc2ccccc2c(=O)s1",
    "target.under.test": "HEK-293T",
    "value.reported": "93%"
  },
  {
    "compound": "Cc1noc(-c2ccc(-c3ccc(CC(=O)O)cc3)cc2)c1NC(=O)O[C@H](C)c1ccccc1Cl",
    "target.under.test": "HEK-293T",
    "value.reported": "91%"
  },
  {
    "compound": "Cc1onc(-c2ccccc2Cl)c1C(=O)N(C)c1ccc(Cl)cc1",
    "target.under.test": "HEK-293T",
    "value.reported": "94%"
  },
  {
    "compound": "CN1CCN(c2cc(-c3ccccc3)nc(N)n2)CC1",
    "target.under.test": "HEK-293T",
    "value.reported": "93%"
  },
  {
    "compound": "Cc1sc2c(c1C)C(c1ccc(Cl)cc1)=N[C@@H](CC(=O)NCCCCCCCCNC(=O)COc1cccc3c1C(=O)N(C1CCC(=O)NC1=O)C3=O)c1nnc(C)n1-2 (stereo partly drawn)",
    "target.under.test": "HEK-293T",
    "value.reported": "87%"
  },
  {
    "compound": "O=C(NCCN1CCC(n2c(=O)[nH]c3cc(Cl)ccc32)CC1)c1ccc(F)cc1 [HALOPEMIDE]",
    "target.under.test": "HEK-293T",
    "value.reported": "91%"
  },
  {
    "compound": "CC(=O)Nc1cccc2c1c(Sc1ccc(Cl)cc1)c(C)n2CC(=O)O",
    "target.under.test": "HEK-293T",
    "value.reported": "95%"
  },
  {
    "compound": "COc1ccccc1N1CCN(C[C@@H](C(=O)NC(C)(C)C)c2ccccc2)CC1.Cl.Cl",
    "target.under.test": "HEK-293T",
    "value.reported": "92%"
  },
  {
    "compound": "Cc1c(CC(=O)O)c2cccnc2n1Cc1ccc(S(C)(=O)=O)cc1C(F)(F)F",
    "target.under.test": "HEK-293T",
    "value.reported": "94%"
  },
  {
    "compound": "Br.CS(=O)(=O)Nc1c(O)ccc2c1CCCC2C1=NCCN1 (stereo not drawn)",
    "target.under.test": "HEK-293T",
    "value.reported": "93%"
  },
  {
    "compound": "CC[C@@H](C)Nc1nc(C)nc2c(-c3ccc(OC)nc3C)c(C)nn12",
    "target.under.test": "HEK-293T",
    "value.reported": "92%"
  }
]
